Measured values drawn from ChEMBL document CHEMBL2086296 for this set.

test system: T47D; assay: Cytotoxicity against human T47D cells after 24 hrs by SRB assay; type: functional
Kindly state GI50 for each of the entries shown.
One number for each entry, in µM.

// batch mode: one GI50 value per listed entry
1. O=C(/C=C/c1cc2ccccc2[nH]c1=O)/C=C/c1cc2ccccc2[nH]c1=O
2. COc1ccc(C(=O)/C=C/c2cc3ccccc3[nH]c2=O)cc1
3. O=C(/C=C/c1cc2ccccc2[nH]c1=O)c1ccc(O)cc1
4. O=C(/C=C/c1cc2ccccc2[nH]c1=O)c1ccc(Cl)cc1

Outgoing:
1: 3.27; 2: 3.55; 3: 4.19; 4: 7.31

----------
test system: SW-620; experiment: Cytotoxicity against human SW620 cells after 24 hrs by SRB assay; assay type: cell-based; details: sw-620, 24 h
I'd be grateful if you could share measured LC50 for these entries.
Give bare numbers, in µM.

COc1ccc(C(=O)/C=C/c2cc3ccccc3[nH]c2=O)cc1 40.2

Read the next record carefully.
Incoming: Given O=C(/C=C/c1cc2ccccc2[nH]c1=O)c1ccc(Cl)cc1 , state its recorded LC50.
Outgoing: 56.6
